Assay: Metabolic stability in rat liver microsomes
Format: in vitro ADME
measured.property: Metabolic Stability Study R = rat (µL/min/mg)
# value in µL/min/mg; strip the unit string

Record excerpt, results attached:
compound	Metabolic Stability Study R = rat / µL/min/mg
CNC(C)(C)Cc1ccc(NS(=O)(=O)c2ccc(NC(=O)N[C@@H](C)c3ccc(-c4cnccn4)c(Cl)c3Cl)cc2)cc1	36.2
CC(NC(=O)Nc1ccc(S(=O)(=O)Cc2ccc3c(c2)CCNC3)cc1C(=O)O)c1cccc(Cl)c1Cl (stereo not shown)	13.3
COc1cc(S(=O)(=O)Cc2ccc3c(c2)CCNC3)ccc1NC(=O)NC(C)c1cccc(Cl)c1Cl.Cl (stereo not shown)	28.3

**Q:** Can you share its Metabolic Stability Study R = rat? I mean this compound: C[C@H](NC(=O)Nc1ccc(S(=O)(=O)Nc2ccc(CC(C)(C)N)cc2)cc1)c1ccc(-c2cnccn2)c(Cl)c1Cl
**A:** 13.6
